Readings of CHI Log D for the listed compounds
- Assay: CHI Log D procedure
- Format: physicochemical
- Assay context: pH 7.4

Compound: CCN(CC(=O)O)C[C@@H]1NC(=O)[C@H](CC(=O)O)NC(=O)C2(CCCC=CCCCOC(=O)N3CC[C@@](C(=O)N[C@@H](Cc4ccsc4)C(=O)N[C@@H](Cc4csc5ccccc45)C(=O)N[C@@H](CCC(N)=O)C(N)=O)(C3)NC(=O)[C@H]([C@@H](C)O)NC(=O)[C@H](Cc3ccccc3)NC(=O)[C@H](C)NC(=O)[C@H](C)NC1=O)CCCC=CC[C@]1(CCCN1C(C)=O)C(=O)N[C@@H](CC(=O)O)C(=O)N[C@@H](CC(C)(C)C)C(=O)N2 (some centres unmarked) [I-968]
CHI Log D: 1.752

Compound: CC(=O)N1CCC[C@]12CC=CCCCC1(CCCC=CCCCCCC[C@@](C)(C(=O)N[C@@H](Cc3ccccc3)C(=O)N[C@@H](Cc3c[nH]c4ccccc34)C(=O)N[C@@H](CCC(N)=O)C(N)=O)NC(=O)[C@H](C(C)C)NC(=O)[C@H](C)NC(=O)[C@H](C)NC(=O)[C@H](C)NC(=O)[C@H](CC(=O)O)NC(=O)[C@H](CC(=O)O)NC1=O)NC(=O)[C@H](C)NC(=O)[C@H](CC(=O)O)NC2=O (some centres unmarked) [I-353]
CHI Log D: 1.916

----------
- Tgt: beta-catenin/TCF4 engagement (Homo sapiens, UniProt P35222)
- Construct: expressed in transfected cells; host or cells: HEK293
- Sequence (P35222 1-781): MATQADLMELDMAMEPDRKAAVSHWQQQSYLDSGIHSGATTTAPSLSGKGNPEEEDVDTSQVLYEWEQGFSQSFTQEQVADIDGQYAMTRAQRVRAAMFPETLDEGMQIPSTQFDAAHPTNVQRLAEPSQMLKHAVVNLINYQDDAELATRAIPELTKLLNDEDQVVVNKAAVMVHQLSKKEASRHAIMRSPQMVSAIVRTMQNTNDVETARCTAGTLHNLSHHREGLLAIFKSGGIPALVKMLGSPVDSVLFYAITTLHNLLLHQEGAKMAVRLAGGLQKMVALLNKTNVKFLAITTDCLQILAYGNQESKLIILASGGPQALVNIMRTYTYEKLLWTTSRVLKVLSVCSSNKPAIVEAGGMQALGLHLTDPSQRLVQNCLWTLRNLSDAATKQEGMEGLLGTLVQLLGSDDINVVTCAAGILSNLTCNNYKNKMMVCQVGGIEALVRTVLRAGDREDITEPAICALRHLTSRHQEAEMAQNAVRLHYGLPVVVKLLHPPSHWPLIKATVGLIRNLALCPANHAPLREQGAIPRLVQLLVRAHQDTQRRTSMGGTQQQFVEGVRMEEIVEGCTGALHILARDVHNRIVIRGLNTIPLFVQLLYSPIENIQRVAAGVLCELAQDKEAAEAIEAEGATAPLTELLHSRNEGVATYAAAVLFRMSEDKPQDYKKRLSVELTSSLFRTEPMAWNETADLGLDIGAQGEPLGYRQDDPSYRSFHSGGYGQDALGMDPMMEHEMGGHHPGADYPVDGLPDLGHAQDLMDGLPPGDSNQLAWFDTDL
- Assay: Nano-BRET target engagement assay (B-cat-Halo & TCF4-Luc in HEK293 cells)
- Type: cell-based
- Assay context: read-out: NanoBRET Abs IC50
pIC50: −log10 of the molar value.

Compound: CC(=O)N1CCC[C@]12CC=CCCCC1(CCCC=CCCCOC(=O)N3CC[C@@](C(=O)N[C@@H](Cc4ccccc4Cl)C(=O)N[C@@H](Cc4csc5ccccc45)C(=O)N[C@@H](CC(N)=O)C(N)=O)(C3)NC(=O)[C@H](CC(C)C)NC(=O)[C@H](Cc3ccccc3)NC(=O)[C@H](C)NC(=O)[C@H](C)NC(=O)[C@H](Cc3cccc(C(=O)O)c3)NC(=O)[C@H](CC(=O)O)NC1=O)NC(=O)[C@H](CC(C)(C)C)NC(=O)[C@H](CC(=O)O)NC2=O (some centres unmarked)
Value prefix: =
pIC50: 5.38

Compound: CCCCCCSSCCOC(=O)C[C@@H]1NC(=O)[C@H](CC(=O)O)NC(=O)C2(CCCC=CCCCOC(=O)N3CC[C@@](C(=O)N[C@@H](Cc4ccsc4)C(=O)N[C@@H](Cc4csc5ccccc45)C(=O)N[C@@H](CCC(N)=O)C(N)=O)(C3)NC(=O)[C@H](CC(C)C)NC(=O)[C@H](Cc3ccccc3)NC(=O)[C@H](C)NC(=O)[C@H](C)NC1=O)CCCC=CC[C@]1(CCCN1C(C)=O)C(=O)N[C@@H](CC(=O)O)C(=O)N[C@@H](CC(C)(C)C)C(=O)N2 (some centres unmarked)
Value prefix: <
pIC50: 4.70

Compound: CC(=O)N1CCC[C@]12CC=CCCCC1(CCCC=CCCCOC(=O)N3CC[C@@](C(=O)N[C@@H](Cc4ccsc4)C(=O)N[C@@H](Cc4csc5ccccc45)C(N)=O)(C3)NC(=O)[C@H](CC(N)=O)NC(=O)[C@H](Cc3ccccc3)NC(=O)[C@H](C)NC(=O)[C@H](C)NC(=O)[C@H](CCC(=O)O)NC(=O)[C@H](CC(=O)O)NC1=O)NC(=O)[C@H](CC(C)(C)C)NC(=O)[C@H](CC(=O)O)NC2=O (some centres unmarked)
Value prefix: =
pIC50: 4.53

Compound: CC(=O)N1CCC[C@]12CC=CCCCC1(CCCC=CCCCOC(=O)N3CC[C@@](C(=O)N[C@@H](Cc4ccsc4)C(=O)N[C@@H](Cc4csc5ccccc45)C(=O)N[C@@H](C)C(N)=O)(C3)NC(=O)[C@H](CC(C)C)NC(=O)[C@H](Cc3ccccc3)NC(=O)[C@H](C)NC(=O)[C@H](CO)NC(=O)[C@H](Cc3cccc(C(=O)O)c3)NC(=O)[C@H](CC(=O)O)NC1=O)NC(=O)[C@H](CC(C)(C)C)NC(=O)[C@H](CC(=O)O)NC2=O (some centres unmarked)
Value prefix: =
pIC50: 5.31

Compound: CC(=O)N1CCC[C@]12CC=CCCCC1(CCCC=CCCCOC(=O)N3CC[C@@](C(=O)N[C@@H](Cc4ccsc4)C(=O)N[C@@H](Cc4csc5ccccc45)C(=O)N[C@@H](C)C(N)=O)(C3)NC(=O)[C@H](CC(C)C)NC(=O)[C@H](Cc3ccccc3)NC(=O)[C@H](C)NC(=O)[C@H]([C@@H](C)O)NC(=O)[C@H](Cc3cccc(C(=O)O)c3)NC(=O)[C@H](CC(=O)O)NC1=O)NC(=O)[C@H](CC(C)(C)C)NC(=O)[C@H](CC(=O)O)NC2=O (some centres unmarked)
Value prefix: =
pIC50: 5.08
